Tested on: A549/ATCC NSCLC
test_details: NCI-60 one-dose screen, 48 h (100 = growth as untreated, 0 = no growth, -100 = all killed)
assay_setup: 10 µM
Method: Growth inhibition of the A549/ATCC human Non-Small Cell Lung tumor cell line is measured as a screen for anti-cancer activity. Cells are grown in 96 well plates and exposed to the test compound for 48 hours. Compounds are tested at a single concentration, which is 10^-5 M for most compounds. The reported endpoint is percent growth (GI% or GIPRCNT), where numbers from 0 - 100% represent growth inhibition, and numbers from -100% - 0 represent cell death. […]
The panel holds about 83,000 compounds, 20% with a hit somewhere; the sample as a whole holds those more often.
measured_quantity: growth (%)

[[record]]
chemical_structure = "O=C(Nc1ccc(Cl)c([N+](=O)[O-])c1)Nc1ccc(Cl)c([N+](=O)[O-])c1"
reported_result = 26.1

[[record]]
chemical_structure = "Cc1cccc2cc(-c3cc(-c4ccccc4)nc(=O)[nH]3)c(Cl)nc12"
reported_result = 96.4

[[record]]
chemical_structure = "Cc1noc2c(Cc3ccccc3)nn(CC(=O)N/N=C/c3ccc(Cl)cc3)c(=O)c12"
reported_result = 20.4

[[record]]
chemical_structure = "O=c1[nH][nH]c(Nc2ccccc2)c1N=Nc1ccc(F)cc1"
reported_result = 84.8

[[record]]
chemical_structure = "COc1cc2oc(-c3cccc(C(=O)Nc4ccc(Cl)cc4)c3)cc(=O)c2c(OCCNC(=O)CNC(=O)OC(C)(C)C)c1OC"
reported_result = 53.9

[[record]]
chemical_structure = "O=C(CNc1nc(-c2ccccc2)cs1)Nc1ccc(Cl)cc1[N+](=O)[O-]"
reported_result = 12.6

[[record]]
chemical_structure = "CC1(C)CC[C@]2(C(=O)O)CC[C@]3(C)C(=CC[C@@H]4[C@@]5(C)C/C(=C/c6ccncc6)[C@H](O)C(C)(C)[C@@H]5CC[C@]43C)[C@@H]2C1"
reported_result = 19.9

[[record]]
chemical_structure = "Brc1ccc(/C=N/Nc2ncnc3sc4c(c23)CCN(Cc2ccccc2)C4)cc1"
reported_result = 74.2

[[record]]
chemical_structure = "COc1ccc2[nH]cc(/C=N/Nc3cccc(Cl)n3)c2c1"
reported_result = 69.8

[[record]]
chemical_structure = "CC(=O)Nc1nc(-c2ccc(N3CCN(C)CC3)c(NS(=O)(=O)c3ccc(C(F)(F)F)cc3)c2)cs1"
reported_result = 55.5

[[record]]
chemical_structure = "CCN(CC)CCOc1ccc(C(=C(C)c2ccccc2)c2ccc(OCCN(CC)CC)cc2)cc1"
reported_result = 15.2

[[record]]
chemical_structure = "O=C(N/N=C/c1ccc(B(O)O)o1)c1[nH]c2ccc(Br)cc2c1-c1ccccc1"
reported_result = 31.1

[[record]]
chemical_structure = "O=C(c1ccc(-n2c(=O)[nH]c3ccccc3c2=O)cc1)N1CCOCC1"
reported_result = 119

[[record]]
chemical_structure = "CC(=C(c1ccc(OCCN2CCCCC2)cc1)c1ccc(OCCN2CCCCC2)cc1)c1ccccc1"
reported_result = 33.3

[[record]]
chemical_structure = "CCOc1ccc(/C=N/NC(=O)Cn2nc(Cc3ccc([N+](=O)[O-])cc3)c3onc(C)c3c2=O)cc1"
reported_result = -23.6

[[record]]
chemical_structure = "CCOC(=O)CNC(=O)CN(Cc1ccccc1)C(=O)[C@@]1(C)CCC[C@]2(C)[C@H]3CC4C(C(C)C)=C[C@]3(CC[C@H]21)[C@@H]1C(=O)CCC(=O)[C@H]41"
reported_result = 65

[[record]]
chemical_structure = "CCCn1c(O)c(N=Nc2nc(-c3cc4ccccc4oc3=O)cs2)c2cc(Br)ccc21"
reported_result = 110

[[record]]
chemical_structure = "OCCCNc1oc(-c2ccccc2)nc1[P+](c1ccccc1)(c1ccccc1)c1ccccc1"
reported_result = 29.6

